All figures here come from patent US20260116991A1.

Molecular target: T1, monkey GPC3-His protein (monkey)
T1 construct: Bought recombinant protein; also called monkey GPC3 protein
Assay: SPR, antibody captured on Protein A chip, monkey GPC3-His analyte;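 also: run at 25 °C with 240 s association and up to 600 s dissociation, double-referenced, kinetics fitted to a 1:1 Langmuir binding model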
Give measured kon for each item. Keep answers brief.
Answers are plain numbers, in M⁻¹ s⁻¹.

Previously resolved entries follow.
Binder	kon, M⁻¹ s⁻¹
F1.83.6 (antibody, human IgG1, kappa, V domains shown, Human-murine chimeric antibody) VH: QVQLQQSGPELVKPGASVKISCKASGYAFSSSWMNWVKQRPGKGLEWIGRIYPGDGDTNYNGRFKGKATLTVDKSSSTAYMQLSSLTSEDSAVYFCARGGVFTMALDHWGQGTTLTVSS VL: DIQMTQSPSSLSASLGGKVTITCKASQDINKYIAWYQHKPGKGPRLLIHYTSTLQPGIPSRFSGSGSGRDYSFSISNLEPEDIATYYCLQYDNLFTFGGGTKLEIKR	148000
F1.145.22 (antibody, human IgG1, kappa, V domains shown, Human-murine chimeric antibody) VH: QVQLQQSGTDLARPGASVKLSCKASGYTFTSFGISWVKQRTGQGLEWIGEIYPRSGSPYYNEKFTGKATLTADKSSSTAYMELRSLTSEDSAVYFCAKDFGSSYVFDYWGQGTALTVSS VL: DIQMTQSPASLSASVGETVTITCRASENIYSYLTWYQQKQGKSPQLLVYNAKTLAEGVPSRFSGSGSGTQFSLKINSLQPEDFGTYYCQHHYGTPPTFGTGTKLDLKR	311000

Okay, next one:
Task: // query kon value for entry F4.21.16 (antibody, human IgG1, kappa, V domains shown, Human-murine chimeric antibody) VH: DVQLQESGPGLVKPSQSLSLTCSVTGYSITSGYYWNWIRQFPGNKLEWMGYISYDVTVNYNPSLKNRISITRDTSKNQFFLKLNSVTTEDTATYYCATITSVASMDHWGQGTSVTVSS VL: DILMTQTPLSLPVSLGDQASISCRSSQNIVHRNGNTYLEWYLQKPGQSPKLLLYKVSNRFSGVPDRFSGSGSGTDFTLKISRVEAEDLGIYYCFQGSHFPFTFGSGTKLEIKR
Output: 38800
